system: Nucleic Acid; assay: Binding affinity to DNA using anisaldehyde reagent by TLC method; format: nucleic-acid assay
The source made the active and inactive calls. No cut-off for these calls is given here.
attribute measured: Activity

Solved entries:
### Prompt Fill in the blank: the reported Activity of COc1ccc(C2C=C(c3ccc(N)cc3)N=C3SC(S(N)(=O)=O)=NN32)cc1 (centres undefined) is ____.
### Response inactive

### Prompt Also, `Cc1nc2sc(S(N)(=O)=O)nn2c(=O)c1/N=N/c1ccc([N+](=O)[O-])cc1` please.
### Response inactive

### Prompt Same lookup for NS(=O)(=O)C1=NN2C(=NC(c3ccccc3)=CC2c2ccc(Cl)cc2)S1 (centres undefined) , please.
### Response Active

### Prompt What do you have for `COc1ccc(/N=N/c2c(C)nc3sc(S(N)(=O)=O)nn3c2=O)cc1` ?
### Response inactive

### Prompt // next record `NS(=O)(=O)c1nn2c(=O)cc(C(=O)NNc3ccccc3)nc2s1`
### Response inactive

### Prompt Also, NS(=O)(=O)C1=NN2C(=NC(c3ccccc3)=CC2c2ccc([N+](=O)[O-])cc2)S1 (centres undefined) please.
### Response inactive

Further cases:
### Prompt Which Activity is reported for this molecule? `Cc1ccc(/N=N/c2c(C)nc3sc(S(N)(=O)=O)nn3c2=O)cc1`
### Response inactive

### Prompt Then this molecule: COc1ccc(C2C=C(c3ccccc3)N=C3SC(S(N)(=O)=O)=NN32)cc1OC (centres undefined)
### Response Active

### Prompt Now try Nc1ccc(C2=CC(c3ccc(Cl)cc3)N3N=C(S(N)(=O)=O)SC3=N2)cc1 (centres undefined) .
### Response Active

* * *

molecular target: Nucleic Acid; experiment: Displacement of methyl green dye from DNA after 24 hrs by spectrophotometric analysis; assay type: nucleic-acid assay
Listing of entries alongside the reported IC50.
The reply should contain only the number, in µg/mL.

Worked cases, IC50 given:
### Prompt IC50 lookup needed for Cc1cccc(C2=CC(c3ccccc3)N3N=C(S(N)(=O)=O)SC3=N2)c1 (stereo unspecified) , thanks.
### Response 72

### Prompt What would you report for `NS(=O)(=O)c1nn2c(=O)ccnc2s1` ?
### Response 70

### Prompt Now consider NS(=O)(=O)C1=NN2C(=NC(c3ccccc3)=CC2c2ccc([N+](=O)[O-])cc2)S1 (stereo unspecified) and answer again.
### Response 81

Next:
### Prompt Sample `COc1ccc(/N=N/c2c(C)nc3sc(S(N)(=O)=O)nn3c2=O)cc1` — what was its IC50?
### Response 81

### Prompt Another compound to look at: `Cc1cc(=O)n2nc(S(N)(=O)=O)sc2n1`
### Response 76

### Prompt What about this compound? `Cc1ccc(/N=N/c2c(C)nc3sc(S(N)(=O)=O)nn3c2=O)cc1`
### Response 81

* * *

The following compounds are shown together with reported IC50 values.
molecular target: Nucleic Acid; assay: Displacement of methyl green dye from DNA after 24 hrs by spectrophotometric analysis; format: nucleic-acid assay
Note: state the figure and append the unit.

### Prompt # IC50 lookup, item `N=C1CC(=O)N=C2SC(S([NH-])(=O)=O)=NN12.[Na+]`
### Response 76 µg/mL

### Prompt Try `Cc1nc2sc(S(N)(=O)=O)nn2c(=O)c1/N=N/c1ccc(Cl)cc1` next.
### Response 74 µg/mL

### Prompt Likewise for COc1ccc(C2C=C(c3ccccc3)N=C3SC(S(N)(=O)=O)=NN32)cc1OC (stereo not given) ?
### Response 62 µg/mL

### Prompt # repeat for `Cc1nc2sc(S(N)(=O)=O)nn2c(=O)c1/N=N/c1ccc(Br)cc1`
### Response 74 µg/mL

### Prompt Then `NS(=O)(=O)c1nn2c(=O)cc(Cl)nc2s1` ?
### Response 79 µg/mL

Proceed to the following item.
### Prompt Sample `NS(=O)(=O)c1nn2c(=O)cc(C(=O)NNc3ccccc3)nc2s1` — what was its IC50?
### Response 81 µg/mL
